Below is a list of entries, each paired with its recorded Ki value.
biological target: human histamine H2 receptor (hH2R) (Homo sapiens); construct: SP (signal peptide) (N); FLAG (N); expressed in transfected cells; assay: hH2R radioligand binding ([3H]UR-DE257); details: HEK293T cells; n = 3, triplicate
Sequence (P25021 whole entry): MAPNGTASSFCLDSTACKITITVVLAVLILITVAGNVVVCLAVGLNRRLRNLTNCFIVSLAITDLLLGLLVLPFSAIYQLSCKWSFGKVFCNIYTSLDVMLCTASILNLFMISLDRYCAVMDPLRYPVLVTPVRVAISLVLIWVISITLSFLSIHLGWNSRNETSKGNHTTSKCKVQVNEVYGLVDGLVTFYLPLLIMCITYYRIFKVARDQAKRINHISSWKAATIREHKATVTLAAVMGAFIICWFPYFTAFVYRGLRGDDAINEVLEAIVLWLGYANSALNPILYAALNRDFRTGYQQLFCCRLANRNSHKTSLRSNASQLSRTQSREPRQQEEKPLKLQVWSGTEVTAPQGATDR

N#Cc1ccc(-c2ccc(OCCCN3CCC(c4ccncc4)CC3)cc2)cc1    > 10 µM

Consider now this further compound.
Check the records and state Ki for `c1ccc(Nc2ccc(OCCCN3CCCCC3)cc2)cc1`
> 10 µM

---

assay: serum metabolic stability; conditions: serum (made from plasma by clotting with calcium chloride)
Quantity name: half-life at 24 h (h)
Dear colleague, please return just the value in h, with no unit written.

Check the records and state half-life at 24 h for `N#Cc1ccc(-c2ccc(OCCCN3CCC(c4ccncc4)CC3)cc2)cc1`
7.7

---

Below is a list of entries, each paired with its recorded Ki value.
target: human histamine H4 receptor (hH4R) (Homo sapiens); construct: SP (signal peptide) (N); FLAG (N); expressed in transfected cells; assay: hH4R radioligand binding ([3H]UR-PI294); details: read-out: hH4R (Ki [nM] x̅ [CI 95%]); HEK293T cells; n = 3, triplicate
Sequence (Q9H3N8 whole entry): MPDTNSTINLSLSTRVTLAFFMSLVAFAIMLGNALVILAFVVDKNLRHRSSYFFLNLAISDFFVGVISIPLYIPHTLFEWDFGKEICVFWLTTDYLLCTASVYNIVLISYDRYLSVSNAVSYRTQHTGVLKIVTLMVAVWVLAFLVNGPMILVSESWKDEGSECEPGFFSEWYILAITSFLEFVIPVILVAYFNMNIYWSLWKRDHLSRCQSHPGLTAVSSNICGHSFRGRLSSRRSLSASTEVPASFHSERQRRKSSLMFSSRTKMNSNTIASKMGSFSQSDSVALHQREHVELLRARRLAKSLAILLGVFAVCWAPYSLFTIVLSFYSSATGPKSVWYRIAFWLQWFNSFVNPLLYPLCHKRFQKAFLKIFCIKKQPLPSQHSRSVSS

Known Ki results, listed for orientation:
c1ccc(Nc2ccc(OCCCN3CCCCC3)cc2)cc1    > 10000 nM
c1ccc(-c2ccc(OCCCN3CCCCCC3)cc2)cc1    > 10000 nM

Consider now this further compound.
Check the records and state Ki for `N#Cc1ccc(-c2ccc(OCCCN3CCC(c4ccncc4)CC3)cc2)cc1`
> 10000 nM

---

assay: pKa determination by potentiometric titration; type: physicochemical; conditions: aqueous solution, experimental, potentiometric titration; read-out: pKa
Quantity name: pKa
Enter the number alone.

Check the records and state pKa for OCCCN1CCCCC1 [3-(piperidin-1-yl)propan-1-ol, reference compound]
9.73

---

test: pKa determination by potentiometric titration; type: physicochemical; conditions: aqueous solution, experimental, potentiometric titration; read-out: pKa3
Quantity name: pKa
Enter the number alone.

N#Cc1ccc(-c2ccc(OCCCN3CCN(c4ccncc4)CC3)cc2)cc1    6.65

Consider now this further compound.
Check the records and state pKa for OCCCN1CCN(c2ccncc2)CC1 [reference compound]
8.82

---

Below is a list of entries, each paired with its recorded pKa value.
assay: pKa determination by potentiometric titration; format: physicochemical; conditions: aqueous solution, experimental, potentiometric titration; read-out: pKa1
Enter the number alone.

Known pKa results, listed for orientation:
OCCCN1CCNCC1 [3-(piperazin-1-yl)propan-1-ol, reference compound]    4.52
N#Cc1ccc(-c2ccc(OCCCN3CCN(c4ccncc4)CC3)cc2)cc1 [KSK94]    6.25

Check the records and state pKa for OCCCN1CCC(c2ccncc2)CC1 [reference compound]
4.91

Check the records and state pKa for OCCCN1CCN(c2ccncc2)CC1 [reference compound]
6.1

Check the records and state pKa for O=C(c1ccc(OCCCN2CCC(c3ccncc3)CC2)cc1)C1CC1 [KSK68]
4.9

---

experiment: parallel artificial membrane permeability assay (PAMPA); type: in vitro ADME; settings: 100 μM in PBS pH 7.4, RT, read-out: Pe (permeability coefficient)
Below is a list of entries, each paired with its recorded Papp at 5 h, 100 µM value.
Dear colleague, please return just the value in ×10⁻⁶ cm/s, with no unit written.

Known Papp at 5 h, 100 µM results, listed for orientation:
Cc1cc(OCCN2CCOCC2)nn1-c1ccc2ccccc2c1    5.26
c1ccc(Nc2ccc(OCCCN3CCCCC3)cc2)cc1    10.6
N#Cc1ccc(-c2ccc(OCCCN3CCC(c4ccncc4)CC3)cc2)cc1    12
c1ccc(-c2ccc(OCCCN3CCCCCC3)cc2)cc1    6.57

Check the records and state Papp at 5 h, 100 µM for CCN1CCCC1CNC(=O)c1cc(S(N)(=O)=O)ccc1OC (centres unmarked) [sulpiride, reference compound]
0.05
